target: hTFR1-His (human, UniProt P02786); assay: SPR
Sequence (P02786 89-760): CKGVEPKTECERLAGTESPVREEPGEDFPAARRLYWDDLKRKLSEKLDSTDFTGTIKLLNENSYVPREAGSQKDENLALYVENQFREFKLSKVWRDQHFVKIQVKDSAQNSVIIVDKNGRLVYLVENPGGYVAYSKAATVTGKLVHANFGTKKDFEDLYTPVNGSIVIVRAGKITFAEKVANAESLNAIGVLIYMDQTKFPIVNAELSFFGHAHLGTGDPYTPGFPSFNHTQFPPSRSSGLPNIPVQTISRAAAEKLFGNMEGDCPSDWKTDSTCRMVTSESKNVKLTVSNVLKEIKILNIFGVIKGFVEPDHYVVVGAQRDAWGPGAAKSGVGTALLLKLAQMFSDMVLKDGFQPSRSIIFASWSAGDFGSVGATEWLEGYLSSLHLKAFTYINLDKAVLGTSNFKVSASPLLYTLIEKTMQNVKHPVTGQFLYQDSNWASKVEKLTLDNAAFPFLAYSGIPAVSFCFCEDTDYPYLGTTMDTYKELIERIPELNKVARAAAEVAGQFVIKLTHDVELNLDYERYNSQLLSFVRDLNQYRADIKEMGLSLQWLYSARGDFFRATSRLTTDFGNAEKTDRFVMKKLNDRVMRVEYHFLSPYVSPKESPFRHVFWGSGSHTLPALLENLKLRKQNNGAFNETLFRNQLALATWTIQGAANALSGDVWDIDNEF
pKd: −log10 of the molar value.

| Binder | pKd |
| --- | --- |
| 24C9 (antibody, V domains shown) VH: EVQLVQSGGGVVQPGRSLRLSCAASGFTLSSYGMYWVRQAPGKGREWVAFIRFDESKKYYADSVKGRFTISRDNSKNTLYLQMNSLRAEDTAVYYCARDGEGGYCTNGVCHGLDVWGQGTTVTVSS | 7.84 |
| 24G5 (designed binder) QLQLQESGGGLVQPGGSLRLTCAASGFTFSSFAMSWVRQAPGKGLERVSEISDSGGNTYYADSVKGRFTISRDNSKNTLYLQMNSLRAEDTAVYYCAKDDSSGWAFNIWDQGTVVTVSS | 8.69 |
| 23B8 (antibody, V domains shown) VH: QVTLKESGGGLVKPGGSLRLSCAASGFPFSNAWMNWVRQAPGKGLEWVGHIKSKTDGGTTDYAAPVKGRFTISRDDSKNMVFLQMNSLKTEDTAVYYCTTDRAYCGGDCSHYYYHDLDVWGQGTTVTVSS | 8.06 |
| 24A1 (designed binder) EVQLVESGGGLVQPGGSLRLTCAASGFTFSSYAMSWVRQAPGKGLERVSEISGSGSSTNYADSVKGRFTISRDNSKNTLYLQMNSLRAEDTAVYYCAKDDSSGWAFNIWDQGTVVTVSS | 8.53 |
